- SYSTEM TESTED: T1, human FLT3 (hFLT3) (human, UniProt P36888 27-543)
- T1 construct: also called huFlt3; Fms-Like Tyrosine Kinase 3
- T1 sequence (looked up): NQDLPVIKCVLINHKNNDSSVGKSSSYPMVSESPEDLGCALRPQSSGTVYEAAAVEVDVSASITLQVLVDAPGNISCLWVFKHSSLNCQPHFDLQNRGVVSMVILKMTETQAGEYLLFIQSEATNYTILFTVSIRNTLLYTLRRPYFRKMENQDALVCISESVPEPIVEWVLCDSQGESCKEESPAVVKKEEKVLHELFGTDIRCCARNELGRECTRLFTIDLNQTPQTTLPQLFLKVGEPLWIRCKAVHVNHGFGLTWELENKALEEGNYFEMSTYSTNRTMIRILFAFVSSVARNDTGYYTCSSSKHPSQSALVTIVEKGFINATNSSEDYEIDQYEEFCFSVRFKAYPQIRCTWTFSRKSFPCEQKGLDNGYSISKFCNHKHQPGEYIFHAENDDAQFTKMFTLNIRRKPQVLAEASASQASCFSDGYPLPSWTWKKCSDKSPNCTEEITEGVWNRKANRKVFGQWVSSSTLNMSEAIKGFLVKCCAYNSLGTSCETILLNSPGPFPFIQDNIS
- ASSAY NOTES: SPR (Biacore T200), 37 C; IgG captured on anti-human Fc, hFLT3 as analyte
MEASURED PARAMETER: kon (M⁻¹ s⁻¹)
Just the number please, in M⁻¹ s⁻¹, no unit attached.

Enquiry: Look up kon: P1A5 (IgG format) (antibody, V domains shown, IgG format, captured by anti-human Fc; the entry printed as P1A5 is used) VH: QVQLVQSGAEVKKPGSSVKVSCKASGGVFSRYALSWVRQAPGQGLEWMGGIIPMLGFANYAQKFQGRVTITADESTSTAYMELSSLRSEDTAVYYCATLDFGALDYWGQGTLVTVSS VL: EIVLTQSPGTLSLSPGERATLSCRASQAVDSSDLAWYQQKPGQAPRLLIYDAYTRPSGIPDRFSGSGSGTDFTLTISRLEPEDFAVYYCQQYGSSPLTFGGGTKLEIK
Return: 1.78e+06

Attention now shifts to the item below.
Enquiry: Look up kon: P1B11 (IgG format) (antibody, V domains shown, IgG format, captured by anti-human Fc) VH: QVQLVQSGAEVKKPGSSVKVSCKASGGTFRSFDISWVRQAPGQGLEWMGRIIPILGYANYAQKFQGRVTITADESTSTAYMELSSLRSEDTAVYYCASDLGAPWAGYPFDPWGQGTLVTVSS VL: EIVLTQSPGTLSLSPGERATLSCRASQSVSSSELAWYQQKPGQAPRLLIYDASSRATGIPDRFSGSGSGTDFTLTISRLEPEDFAVYYCQQYDSSPLTFGQGTKVEIK
Return: 120000
